Entry source: patent US6534523B1

# pIC50 annotations
# system: HCV NS3 protease (UniProt P26663)
# Sequence (P26663 1027-1206, other chains not shown): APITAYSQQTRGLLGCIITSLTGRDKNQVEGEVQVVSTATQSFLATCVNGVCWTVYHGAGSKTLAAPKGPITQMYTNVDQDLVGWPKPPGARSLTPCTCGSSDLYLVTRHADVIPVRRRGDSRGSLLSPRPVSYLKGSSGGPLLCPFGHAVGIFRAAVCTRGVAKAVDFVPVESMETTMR
# Assay type: biochemical, HCV genotype 1b
# Parameters: rows headed: IC50 (μM); IC50 (μM)
# condition_description: Table 5
pIC50 is defined as minus the log10 of a concentration measured in mol/L.

Solved entries:
compound: C=CC1CC1(NC(=O)C1CC(Oc2ccnc3ccccc23)CN1C(=O)C(NC(=O)OC(C)(C)C)C(O)C1CCCCC1)C(=O)O (stereo not drawn)
system: HCV NS3 protease (UniProt P26663)
value_kind: pIC50
recorded_result: 5.68

compound: C=CC1C[C@]1(NC(=O)[C@@H]1C[C@@H](Oc2ccnc3ccccc23)CN1C(=O)[C@@H](NC(=O)OC(C)(C)C)C(C)(C)C)C(=O)O (stereo partly drawn)
system: HCV NS3 protease (UniProt P26663)
value_kind: pIC50
recorded_result: 6.40

compound: C=CC1CC1(NC(=O)C1CC(Oc2ccnc3ccccc23)CN1C(=O)C(NC(=O)OC(C)(C)C)C(C)(C)SCc1ccc(C)cc1)C(=O)O (stereo not drawn)
system: HCV NS3 protease (UniProt P26663)
value_kind: pIC50
recorded_result: 5.51

INPUT: Lookup: pIC50 / HCV NS3 protease (UniProt P26663) / C=CC1CC1(NC(=O)C1CC(Oc2ccnc3ccccc23)CN1C(=O)C(NC(=O)OC(C)(C)C)C(C)(C)SCNC(C)=O)C(=O)O (stereo not drawn)
OUTPUT: 6.01

INPUT: Lookup: pIC50 / HCV NS3 protease (UniProt P26663) / C=CC1CC1(NC(=O)C1CC(Oc2ccnc3ccccc23)CN1C(=O)C(NC(=O)OC(C)(C)C)C(C)OCc1ccccc1)C(=O)O (stereo not drawn)
OUTPUT: 5.89

INPUT: Lookup: pIC50 / HCV NS3 protease (UniProt P26663) / C=CC1CC1(NC(=O)C1CC(Oc2ccnc3ccccc23)CN1C(=O)C(NC(=O)OC(C)(C)C)C(C)CC)C(=O)O (stereo not drawn) [compound 510]
OUTPUT: 6.59
